Each record here notes measured kon.
# Subject Of Test: T1, purified recombinant 161P2F10B extracellular domain (Tag5-161P2F10B ECD, amino acids 46-875) (human, UniProt O14638 46-875)
# T1 construct: also called full length ECD
# Measurement Description: SPR (BIAcore), MAb captured on chip, recombinant 161P2F10B injected, 1:1 fit;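 note: purified human MAbs immobilised by capture on a CM5 chip surface, about 150 RU of antibody per cycle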

{"columns": ["Binder", "kon"],
 "data": [
  ["Ha16-1(3,5)18 (antibody, IgG1, V domains shown, The limits of VH (1-114) and VL (1-108) are stated in CLM-00001; the entries also hold a portion of the constant region; also called Ha16-1(3, 5)18.1; ATCC PTA-7452) VH: GPGLVKPSETLSLTCTVPGGSIRSYFWSWIRQPAGKGLEWIGRFYFSGSTNYNPSLKSRVTMSVDTSKNQFSLKLSSVTAADTAVYYCARDYGDHYYYYGMDVWGQGTTVTVSS VL: VLTQPPSVSAAPGQKVTISCSGSSSNIGNNYVSWYQQFPGTAPKFLIYDNNKRSSGIPDRFSGSKSGTSATLGITGLQTGDEADYYCGTWDSSLSAVIFGGGTKLTVL", "22000 M⁻¹ s⁻¹"],
  ["H16-1.68 (antibody, V domains shown) VH: EVHLVESGGGVVQPGRSLRLSCAASGFTFRSYGMHWVRQAPGKGLEWVAVIWYDGSNKYYADSVKGRFTISRDNSKNTLYLQMNSLRAEDMAMYYCARSRITIFGVVHYGMDVWGQGTTVTVSS VL: TQLTQSPSSLSASVGDRVTITCRASQNINSYLNWYQQKPGKAPKLLIYAASSLQSGVPSRFSGSGSGTDFTLTISSLQPEDFTTYYCQQSYSSAPTFGGGTKLEIKR", "106000 M⁻¹ s⁻¹"]
]}
